Cited source: PubChem BioAssay AID1508610

- Measured Target: UniProt:Q8TDV0
- Assay Protocol: GPR151 activator potency, dose response, cell-based (AID 1508610)
- Run Parameters: cell-based GPR151 activation reporter
Active and inactive are the calls of the source. How the calls were made is not given here.
Quantity: EC50

Before answering, review these 6 worked examples.
Molecule | EC50
N=C1c2ccccc2CN1CC(=O)c1ccccc1 | > 27.4 µM (inactive)
CC(C)c1ccc(N(CC(=O)NCCSc2ccccc2)S(C)(=O)=O)cc1 | > 28 µM (inactive)
O=C(NCc1ccc(F)cc1)C(=O)Nc1cccc(Cl)c1 | > 28 µM (inactive)
COc1ccccc1N=C1SC(CC(=O)Nc2cccc([N+](=O)[O-])c2)C(=O)N1C (configuration not stated) | > 28 µM (inactive)
CCOc1ccc(C(=O)N2CCC(c3ncncc3-c3ccncc3)CC2)o1 | > 28 µM (inactive)
Cc1nccc2[nH]c(=O)c(C(=O)NC3CCN(Cc4ccccc4)CC3)cc12 | > 28 µM (inactive)

input: Tell me the measured EC50 of COc1ccc(CCn2c(=S)[nH]c3cc(C(=O)N4CCOCC4)ccc3c2=O)cc1OC , please.
output: > 22.2 µM (inactive)

input: Tell me the measured EC50 of CCOC(=O)N1CCN(C(=S)Nc2ccc(C)cc2)CC1 , please.
output: > 28 µM (inactive)

* * *

- Measured Target: G-protein coupled receptor 151 (Homo sapiens)
- Assay Protocol: GPR151 activator potency, dose response, cell-based (AID 1508610)
- Run Parameters: cell-based GPR151 activation reporter
Calls of active or inactive are those of the source. The rule behind the calls is not given here.
Hi! Could you answer with just one of these? true for active, false for inactive

The following molecules have reported results that may help.
Molecule | Class Assignment
Cc1ccc2nc(NC(=O)C34CC5CC(C3)CC(n3cnc([N+](=O)[O-])n3)(C5)C4)sc2c1 | false
Cc1ccsc1C(=O)Nc1nc2ccc(S(C)(=O)=O)cc2s1 | false
COc1ccc(C(=O)Nc2ccc(-n3nncc3C(C)(C)C)cc2)cc1 | false
CCOC(=O)c1c(C)c(C(=O)NCCC(C)C)c(C)n1C | false
CC(C)NC(=O)CSc1nnc(-c2cccnc2)n1CCc1ccccc1 | false
CC(NC(=O)c1ccco1)c1nnc2n1CCN(Cc1cccc(F)c1)CC2 (stereo unspecified) | false
C=CCN1C(=O)CC(C(=O)OC)C12CCN(C1CCN(C(=O)OCC)CC1)CC2 (stereo unspecified) | false
CC(C)Cn1c(-c2nn(C)cc2Cl)n[nH]c1=S | false

input: Please share the test call associated with C=CCN1C(=O)CS/C1=N\NC(=O)c1ccccc1 .
output: false

input: Please share the test call associated with CC(C)N1CCN(Cc2ccc(OC3CCCC3)cc2)CC1CCO (stereo unspecified) .
output: true

input: Please share the test call associated with COc1ccccc1OCCCN1C(=O)C(=O)c2cc(Br)cc(C)c21 .
output: false

* * *

- Measured Target: G-protein coupled receptor 151 (Homo sapiens)
- Assay Protocol: GPR151 activator potency, dose response, cell-based (AID 1508610)
- Run Parameters: cell-based GPR151 activation reporter
Calls of active or inactive are those of the source. No rule for the calls is given here.
Quantity: EC50

Before answering, review these 5 worked examples.
Compound | Measured Target | EC50
CC(C)NC(=O)c1cnc2scc(-c3ccccc3)n2c1=O | G-protein coupled receptor 151 (Homo sapiens) | > 28 µM (inactive)
O=C(NCCOc1ccccc1)c1ccc(-c2ccc(N3CCOCC3)nc2)s1 | G-protein coupled receptor 151 (Homo sapiens) | > 33 µM (inactive)
C=CCOC(=O)CCN1C(=O)c2ccccc2C1=O | G-protein coupled receptor 151 (Homo sapiens) | > 28 µM (inactive)
CC(=O)OC(C(=O)NCc1ccco1)c1ccncc1 (stereo unspecified) | G-protein coupled receptor 151 (Homo sapiens) | > 28 µM (inactive)
Cc1ccc2nc(NC(=O)C3=COCCO3)sc2c1 | G-protein coupled receptor 151 (Homo sapiens) | > 28.4 µM (inactive)

For the next question, use this compound.
input: What is its EC50 for G-protein coupled receptor 151 (Homo sapiens)? Entry: Cc1cccc(-n2ncc3c(Nc4ccc(F)cc4F)ncnc32)c1
output: > 26.9 µM (inactive)

* * *

- Measured Target: G-protein coupled receptor 151 (Homo sapiens)
- Assay Protocol: GPR151 activator potency, dose response, cell-based (AID 1508610)
- Run Parameters: cell-based GPR151 activation reporter
The source made the active and inactive calls. No rule for the calls is given here.
Reported EC50 by item:

Molecule | EC50
CCN(CC)S(=O)(=O)c1ccc(C(=O)Nc2ccc(Cc3ccncc3)cc2)cc1 | > 25 µM (inactive)
O=C(N1CCN(Cc2ccccc2)CC1)C(Cl)(Cl)Cl | > 28 µM (inactive)
CCOCCCNC(=O)CSc1ncccc1-c1nc2cc(C)c(C)cc2[nH]1 | > 28 µM (inactive)
CCOC(=O)C1CCC(CN(CC(C)C)S(=O)(=O)c2ccc([N+](=O)[O-])cc2)CC1 (stereo not given) | > 23.7 µM (inactive)

For the next question, use this molecule.
input: Tell me the measured EC50 of COc1ccc(-c2cnn(-c3ccc(C(=O)O)cc3)c2)cc1 , please.
output: > 28 µM (inactive)

* * *

- Measured Target: G-protein coupled receptor 151 (Homo sapiens) (UniProt Q8TDV0)
- Sequence (Q8TDV0 whole entry, looked up): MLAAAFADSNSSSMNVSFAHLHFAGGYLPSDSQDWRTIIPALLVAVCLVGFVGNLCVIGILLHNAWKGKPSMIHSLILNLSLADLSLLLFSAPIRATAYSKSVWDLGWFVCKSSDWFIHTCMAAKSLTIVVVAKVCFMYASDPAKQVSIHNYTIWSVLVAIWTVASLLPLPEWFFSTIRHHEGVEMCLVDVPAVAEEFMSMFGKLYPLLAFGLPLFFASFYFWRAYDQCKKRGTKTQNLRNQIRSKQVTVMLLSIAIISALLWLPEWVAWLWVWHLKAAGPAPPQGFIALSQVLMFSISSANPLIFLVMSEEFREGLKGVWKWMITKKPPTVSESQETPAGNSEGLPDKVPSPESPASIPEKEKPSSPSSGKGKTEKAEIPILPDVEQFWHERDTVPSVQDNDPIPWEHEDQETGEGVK
- Assay Protocol: GPR151 activator potency, dose response, cell-based (AID 1508610)
- Run Parameters: cell-based GPR151 activation reporter
Calls of active or inactive are those of the source. How the calls were made is not given here.
Hi! Could you answer with just one of these? class 1 = active, class 0 = inactive

The following compounds have reported results that may help.
Compound | Class Assignment
CCOc1ccc(-n2c(SCC(=O)Nc3ccccc3CC)nc3n[nH]c(C)c3c2=N)cc1 | class 0
Cc1ccc(/C(=N/NC(=O)Cc2ccccc2)C23CN4CN(CN(C4)C2)C3)cc1 | class 0
Cc1ccc(Nc2ncnc3sc(C)c(C)c23)cc1F | class 0
COc1ccc(Cn2nccc2N)cc1OC | class 0

input: Please share the test call associated with CCC(C)OC(=O)C1=C(C)NC2=C(C(=O)CC(c3ccc(OC)cc3)C2)C1c1cc(OC)c(OC)cc1Br (stereo not given) .
output: class 0

input: Please share the test call associated with CC[n+]1cc(C)ccc1/C=C/c1ccc(N(C)C)cc1 .
output: class 0

input: Please share the test call associated with CCC(=O)Oc1ccc2cc(-c3ccc(OC)c(OC)c3)c(=O)oc2c1 .
output: class 0

input: Please share the test call associated with OC1CCN(Cc2ccc3c(c2)CN(CC2CC=CCC2)CCO3)CC1 (stereo not given) .
output: class 0

input: Please share the test call associated with CCN(CC)C(=O)Cn1cnc2sc(C(=O)Nc3cc(C)ccc3OC)c(C)c2c1=O .
output: class 0

input: Please share the test call associated with Cc1cc2nc(-c3cccnc3Cl)[nH]c2cc1C .
output: class 0

input: Please share the test call associated with CCNc1nc(OC(C(F)(F)F)C(F)(F)F)nc(N2CCCCC2)n1 .
output: class 0

input: Please share the test call associated with CC(=O)Oc1ccccc1C(=O)Nc1ncc([N+](=O)[O-])s1 .
output: class 0

input: Please share the test call associated with COc1ccc(OC)c(C(C)NC(=O)c2ccccc2Cl)c1 (stereo not given) .
output: class 0

input: Please share the test call associated with O=C(Nc1ccc(-c2cccc(F)c2)cc1)C1CCCN(C(=O)C2CCOCC2)C1 (stereo not given) .
output: class 0

input: Please share the test call associated with N#C/C(=C\c1cc(Cl)ccc1O)c1nc2ccccc2[nH]1 .
output: class 0

input: Please share the test call associated with CC(=O)Oc1cccc(N2C(=O)C3C4c5ccccc5C(C)(c5ccccc54)C3C2=O)c1 (stereo not given) .
output: class 1

input: Please share the test call associated with Cc1ccccc1N(CC(=O)N1CCOCC1)S(=O)(=O)c1ccc(Cl)cc1 .
output: class 0

input: Please share the test call associated with C[C@H](O)[C@H]1NC(=O)[C@@H]2C[C@H](NCc3cccc(F)c3)CN2C1=O .
output: class 0

input: Please share the test call associated with CCN(CC)S(=O)(=O)c1ccc(-c2csc(=Nc3ccccc3OC)n2CC)cc1 .
output: class 0

input: Please share the test call associated with O=C(O)c1cccc(COc2cccc(Cl)c2)c1 .
output: class 0

input: Please share the test call associated with COc1cccc(/C=C/c2nc3ccccc3c(=O)[nH]2)c1O .
output: class 0

input: Please share the test call associated with CCc1cc2c(cc3c(=O)n(CC(=O)NCc4ccccc4Br)ncn32)s1 .
output: class 0

input: Please share the test call associated with CC[n+]1c(/C=C2\Sc3ccc(C)cc3N2CCO)ccc2ccccc21 .
output: class 0

input: Please share the test call associated with O=C(O)c1cccc(NC(=O)c2ccc(Br)o2)c1 .
output: class 0

input: Please share the test call associated with O=C(Nc1nc2ccccc2[nH]1)c1ccc(Cl)cc1Cl .
output: class 0

input: Please share the test call associated with [O-]/[N+](=C\c1ccncc1)c1ccc(Cl)cc1 .
output: class 0

input: Please share the test call associated with COC(=O)CN1C(=O)S/C(=C\c2cc(Br)c(OC)c(OC)c2)C1=O .
output: class 0
